Tested on: Trypanosoma cruzi
Assay: Antitrypanosomal activity against Trypanosoma cruzi Y trypomastigotes infected in African green monkey Vero cells assessed as parasite growth inhibition incubated for 24 hrs by hemocytometry
Assay type: functional, organism-based
Measurement kind: IC50 (µM)

In the examples that follow, each entry is paired with its recorded IC50.
Challenge: # input compound: C/C(=N\N=C1/SCC(=O)N1C)c1ccccn1 ; wanted: its IC50
Response given: 111

Challenge: # input compound: CNC(=S)N/N=C(\C)c1ccncc1 ; wanted: its IC50
Response given: 51.1

Challenge: # input compound: C/C(=N\NC(=S)Nc1ccccc1)c1ccncc1 ; wanted: its IC50
Response given: 1.27

[I] C/C(=N\N=C1/SCC(=O)N1C)c1ccncc1
[II] C/C(=N\N=C1/SCC(=O)N1c1ccccc1)c1ccccn1
Challenge: Which one would you say has the larger IC50 value: I , or II ? In your reply, give the label of the chosen option.
Response given: I

---

Assay: Selectivity index, ratio of CC50 for mouse RAW264.7 cells to IC50 for Leishmania amazonensis WHOM/00 LTB 0016 promastigotes
Assay type: toxicity
Settings: read-out: Ratio CC50/IC50
# selectivity ratio per record follows
Give your answer as a number; write no unit.

Challenge: # input compound: S=C(N/N=C/c1ccccn1)Nc1ccccc1 ; wanted: its selectivity ratio
Response given: 0.51

Challenge: # input compound: C/C(=N\NC(N)=S)c1ccncc1 ; wanted: its selectivity ratio
Response given: 4.5

Challenge: # input compound: CNC(=S)N/N=C/c1ccccn1 ; wanted: its selectivity ratio
Response given: 3.97

Challenge: # input compound: C/C(=N\N=C1/SCC(=O)N1C)c1ccncc1 ; wanted: its selectivity ratio
Response given: 0.5

Challenge: # input compound: CC(C)C1S/C(=N/N=C/c2ccccn2)N(C)C1=O (stereo unspecified) ; wanted: its selectivity ratio
Response given: 13.2

Challenge: # input compound: CNC(=S)N/N=C(\C)c1ccncc1 ; wanted: its selectivity ratio
Response given: 2.43

Challenge: # input compound: CC1(C)S/C(=N/N=C/c2ccccn2)N(c2ccccc2)C1=O ; wanted: its selectivity ratio
Response given: 3.5

Challenge: # input compound: CNC(=S)N/N=C(\C)c1ccccn1 ; wanted: its selectivity ratio
Response given: 0.1

Challenge: # input compound: C/C(=N\N=C1/SCC(=O)N1c1ccccc1)c1ccccn1 ; wanted: its selectivity ratio
Response given: 0.9

Challenge: # input compound: C/C(=N\N=C1\SC(C(C)C)C(=O)N1C)c1ccncc1 (stereo unspecified) ; wanted: its selectivity ratio
Response given: 0.5

Others:
Challenge: # input compound: CC1(C)S/C(=N/N=C/c2ccccn2)NC1=O ; wanted: its selectivity ratio
Response given: 3.7

Challenge: # input compound: N/C(S)=N/N=C/c1ccccn1 ; wanted: its selectivity ratio
Response given: 0.54

---

Tested on: Trypanosoma cruzi
Assay: Antitrypanosomal activity against Trypanosoma cruzi Y trypomastigotes infected in African green monkey Vero cells assessed as parasite growth inhibition incubated for 24 hrs by hemocytometry
Assay type: functional, organism-based
pIC50: −log10 of the molar value.
Measurement kind: pIC50

Challenge: # input compound: CNC(=S)N/N=C/c1ccccn1 ; wanted: its pIC50
Response given: 5.69

Challenge: # input compound: CN1C(=O)C(C)(C)S/C1=N/N=C/c1ccccn1 ; wanted: its pIC50
Response given: 4.27

Challenge: # input compound: C/C(=N\N=C1/SCC(=O)N1c1ccccc1)c1ccncc1 ; wanted: its pIC50
Response given: 3.49

Challenge: # input compound: C/C(=N\N=C1/NC(=O)C(C(C)C)S1)c1ccncc1 (stereo not given) ; wanted: its pIC50
Response given: 3.44

Challenge: # input compound: CC(C)C1S/C(=N/N=C/c2ccccn2)N(c2ccccc2)C1=O (stereo not given) ; wanted: its pIC50
Response given: 6.00

[I] CC(C)C1S/C(=N/N=C/c2ccccn2)N(C)C1=O (stereo not given)
[II] C/C(=N\NC(N)=S)c1ccncc1
Challenge: Which one would you say has the larger pIC50 value: I , or II ? In your reply, give the label of the chosen option.
Response given: I
(I: 4.96, II: 3.77)

[I] CNC(=S)N/N=C(\C)c1ccccn1
[II] O=C1CS/C(=N/N=C/c2ccccn2)N1
[III] C/C(=N\NC(=S)Nc1ccccc1)c1ccccn1
Challenge: Please order the records by their reported pIC50, lowest number first. Give the order by naming the labels one after another as requested.
Response given: I, II, III
